Test system: HOME cells (human omental capillary endothelial cells)
protocol details: Tube formation of HOME cells induced by TGFα on type-1 collagen gel
Format: cell-based
condition info: Homo sapiens, Endothelial cell; final concentration 10 μg/ml; read-out: inhibition of tube formation induced by TGFα ("inhibited to")

| chemical smiles | target entity | Tube formation remaining (%) at 10 µg/mL |
| --- | --- | --- |
| COc1cc(-c2oc(-c3ccc(O)c(OC)c3)c(C)c2C)ccc1O | HOME cells (human omental capillary endothelial cells) | 50 to 80% |
| Cc1c(-c2ccc3c(c2)OCO3)oc(-c2ccc3c(c2)OCO3)c1C | HOME cells (human omental capillary endothelial cells) | 40 to 60% |
| COc1ccc(-c2oc(-c3ccc(OC)c(O)c3)c(C)c2C)cc1O | HOME cells (human omental capillary endothelial cells) | 50 to 80% |
| CCOC(=O)c1c(-c2ccc(O)c(OC)c2)oc(-c2ccc(O)c(OC)c2)c1C(=O)OCC | HOME cells (human omental capillary endothelial cells) | 50 to 80% |
| COc1cc(-c2oc(-c3cc(OC)c(O)c(OC)c3)c(C)c2C)cc(OC)c1O | HOME cells (human omental capillary endothelial cells) | 50 to 80% |
| COc1ccc(-c2oc(-c3ccc(OC)c(OC)c3)c(C)c2C)cc1OC | HOME cells (human omental capillary endothelial cells) | 40 to 60% |
| Cc1c(-c2ccc3c(c2)OCCO3)oc(-c2ccc3c(c2)OCCO3)c1C | HOME cells (human omental capillary endothelial cells) | 40 to 60% |
| COc1cc(-c2oc(C)c(-c3ccc(O)c(OC)c3)c2C)ccc1O | HOME cells (human omental capillary endothelial cells) | 50 to 80% |
| COc1cc(-c2oc(-c3ccc(O)c(OC)c3)c(CC(C)C)c2CC(C)C)ccc1O | HOME cells (human omental capillary endothelial cells) | 50 to 80% |

---

Test system: HOME cells (human omental capillary endothelial cells)
protocol details: Tube formation of HOME cells induced by TGFα on type-1 collagen gel
Assay type: cell-based
condition info: Table 7; compound 10 μg/ml; TGFα 10 ng/ml; 3 days; non-treatment 0.551, control 1.561

| compound | Total length of lumen/HPF |
| --- | --- |
| COc1ccc(-c2oc(-c3ccc(OC)c(O)c3)c(C)c2C)cc1O [Compound 8] | 0.422 10^3 μm |
| CCOC(=O)c1c(-c2ccc(O)c(OC)c2)oc(-c2ccc(O)c(OC)c2)c1C(=O)OCC [Compound 12] | 0.736 10^3 μm |
| COc1cc(-c2oc(-c3ccc(O)c(OC)c3)c(C)c2C)ccc1O [Compound 1] | 0.337 10^3 μm |
| COc1cc(-c2oc(C)c(-c3ccc(O)c(OC)c3)c2C)ccc1O [Compound 9] | 0.496 10^3 μm |
| COc1cc(-c2oc(-c3ccc(O)c(OC)c3)c(CC(C)C)c2CC(C)C)ccc1O [Compound 10] | 0.655 10^3 μm |
| COc1cc(-c2oc(-c3cc(OC)c(O)c(OC)c3)c(C)c2C)cc(OC)c1O [Compound 11] | 0.817 10^3 μm |

---

Consider the following compounds and their measured Total tube length/HPF readings.
Test system: HOME cells (human omental capillary endothelial cells)
protocol details: Tube formation of HOME cells induced by TGFα on type-1 collagen gel
Format: cell-based
condition info: Table 6; compound 10 μg/ml; TGFα 10 ng/ml; 3 days; non-treatment 0.616, control 2.045

| chemical smiles | target entity | Total tube length/HPF |
| --- | --- | --- |
| Cc1c(-c2ccc3c(c2)OCCO3)oc(-c2ccc3c(c2)OCCO3)c1C | HOME cells (human omental capillary endothelial cells) | 1.195 10^3 μm |
| COc1ccc(-c2oc(-c3ccc(OC)c(OC)c3)c(C)c2C)cc1OC | HOME cells (human omental capillary endothelial cells) | 1.115 10^3 μm |
| COc1cc(-c2oc(-c3ccc(OC(C)=O)c(OC)c3)c(C)c2C)ccc1OC(C)=O | HOME cells (human omental capillary endothelial cells) | 2.127 10^3 μm |
| Cc1c(-c2ccc3c(c2)OCO3)oc(-c2ccc3c(c2)OCO3)c1C | HOME cells (human omental capillary endothelial cells) | 1.240 10^3 μm |

---

System: HOME cells (human omental capillary endothelial cells)
protocol details: Migration of wounded HOME cells (wound healing model), with or without TGFα
Type: cell-based
Set-up: dose or concentration left out as unconfirmed
condition info: Endothelial cell, 24 h, TGFα added, compound added, 24 h, read-out: Cell-migration rate (% of non-treatment group)

| compound | target entity | activity (%) |
| --- | --- | --- |
| Cc1c(-c2ccc3c(c2)OCO3)oc(-c2ccc3c(c2)OCO3)c1C [Compound 6] | HOME cells (human omental capillary endothelial cells) | 59.9 |
| Cc1c(-c2ccc(O)c(O)c2)oc(-c2ccc(O)c(O)c2)c1C [Compound 3] | HOME cells (human omental capillary endothelial cells) | 73.1 |
| Cc1c(-c2ccc3c(c2)OCCO3)oc(-c2ccc3c(c2)OCCO3)c1C [Compound 7] | HOME cells (human omental capillary endothelial cells) | 31.4 |
| COc1ccc(-c2oc(-c3ccc(OC)c(O)c3)c(C)c2C)cc1O [Compound 8] | HOME cells (human omental capillary endothelial cells) | 44.2 |
| CCOC(=O)c1c(-c2ccc(O)c(OC)c2)oc(-c2ccc(O)c(OC)c2)c1C(=O)OCC [Compound 12] | HOME cells (human omental capillary endothelial cells) | 58.4 |
| COc1ccc(-c2oc(-c3ccc(OC)c(OC)c3)c(C)c2C)cc1OC [Compound 2] | HOME cells (human omental capillary endothelial cells) | 68.2 |
| COc1cc(-c2oc(-c3ccc(OC(C)=O)c(OC)c3)c(C)c2C)ccc1OC(C)=O [Compound 4] | HOME cells (human omental capillary endothelial cells) | 60.4 |
| COc1cc(-c2oc(-c3cc(OC)c(O)c(OC)c3)c(C)c2C)cc(OC)c1O [Compound 11] | HOME cells (human omental capillary endothelial cells) | 56.1 |
| COc1cc(-c2oc(-c3ccc(O)c(OC)c3)c(C)c2C)ccc1O [Compound 1] | HOME cells (human omental capillary endothelial cells) | 24 |
| COc1cc(-c2oc(C)c(-c3ccc(O)c(OC)c3)c2C)ccc1O [Compound 9] | HOME cells (human omental capillary endothelial cells) | 73 |

These entries and their values trace back to patent US5629340A.
